Taken from PubChem BioAssay AID330.

Answer each item with its documented T/C.
Tested on: P388 leukemia ip, CD2F1 mice, survival T/C
Assay: NCI In Vivo Anticancer Drug Screen. Data for tumor model P388 Leukemia (intraperitoneal) in CD2F1 (CDF1) mice
Conditions: endpoint: median survival time; dose: 50.0 mg/kg/injection; schedule: Q01DX001 (ip); vehicle: Klucel (hydroxypropylcellulose) (HPC); higher = longer survival
Description: The antitumor activity of compounds was measured in mice bearing transplantable tumors. Survival or tumor size were measured and the results are expressed as the measurement made in the treated group (T) divided by the measurement made in the vehicle treated control group (C). The tumor model used in this assay is P388 Leukemia (intraperitoneal) in CD2F1 (CDF1) mice
Toxic doses and inconclusive results are not listed.

Reference set, count: 5
molecule | test-system | T/C
NC(=O)C(=O)NNc1cccc(Cl)n1 | P388 leukemia ip, CD2F1 mice, survival T/C | 96 % of control
Cc1nn2c(-c3cnns3)nnc2s1 | P388 leukemia ip, CD2F1 mice, survival T/C | 107 % of control
O=C(O)C1C2OC2C2OC2C1C(=O)O (stereo unspecified) | P388 leukemia ip, CD2F1 mice, survival T/C | 92 % of control
CC(C)(C)C#CP(=O)(C#CC(C)(C)C)C#CC(C)(C)C | P388 leukemia ip, CD2F1 mice, survival T/C | 97 % of control
Cc1ccc(S(=O)(=O)Oc2ccc3c(/C=C/[N+](=O)[O-])cn(C)c3c2)cc1 | P388 leukemia ip, CD2F1 mice, survival T/C | 90 % of control

# ---- query molecule ----
Value of T/C reported for the molecule Cc1nc2ccc(CCN3CCN(c4ccccc4Cl)CC3)cc2[nH]1 is 100 % of control
